- TARGET_OF_ASSAY: 5-hydroxytryptamine receptor 6 (Homo sapiens, UniProt P50406)
- Sequence (P50406 whole entry): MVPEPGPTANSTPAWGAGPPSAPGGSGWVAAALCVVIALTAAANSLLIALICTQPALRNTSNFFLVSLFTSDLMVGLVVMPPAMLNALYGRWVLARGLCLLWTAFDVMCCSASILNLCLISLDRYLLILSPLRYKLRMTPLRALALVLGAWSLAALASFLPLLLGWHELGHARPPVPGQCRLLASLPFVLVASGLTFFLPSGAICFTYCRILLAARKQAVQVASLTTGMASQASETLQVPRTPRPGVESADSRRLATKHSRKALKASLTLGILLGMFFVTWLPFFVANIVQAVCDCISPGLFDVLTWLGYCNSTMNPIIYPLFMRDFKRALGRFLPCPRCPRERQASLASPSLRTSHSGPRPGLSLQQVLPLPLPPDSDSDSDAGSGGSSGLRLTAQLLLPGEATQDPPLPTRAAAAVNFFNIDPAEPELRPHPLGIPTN
- ASSAY_PROTOCOL: Antagonist activity at human recombinant 5HT6 receptor expressed in HEK293 cells assessed as inhibition of serotonin-induced cAMP production
- Assay type: functional, cell-based
pIC50: −log10 of the molar value.
pIC50 values for the compounds below.
EXPERIMENTAL_READOUT: pIC50

>>> recorded_number("CN(Cc1ccccc1)c1nc2c(S(=O)(=O)c3ccc(Cl)cc3)nnn2c2ccsc12")
5.92
>>> recorded_number("CC(C)Nc1nc2c(S(=O)(=O)c3ccc(Cl)cc3)nnn2c2ccsc12")
5.92
>>> recorded_number("Cc1ccc(C)c(S(=O)(=O)c2nnn3c2nc(N(C)Cc2ccccc2)c2sccc23)c1")
5.83
>>> recorded_number("O=S(=O)(c1ccc(Cl)cc1)c1nnn2c1nc(NC1CCCCC1)c1sccc12")
6.02
>>> recorded_number("Cc1ccc(C)c(S(=O)(=O)c2nnn3c2nc(NCCc2ccccc2)c2sccc23)c1")
6.17
>>> recorded_number("O=S(=O)(c1ccccc1)c1nnn2c1nc(NCc1ccc3c(c1)OCO3)c1sccc12")
6.54
>>> recorded_number("O=S(=O)(c1ccccc1)c1nnn2c1nc(NC1CCCCCC1)c1sccc12")
6.77
>>> recorded_number("O=S(=O)(c1cccc(Cl)c1)c1nnn2c1nc(NCC1CCCO1)c1sccc12 (stereo not given)")
7.54
>>> recorded_number("CCCCNc1nc2c(S(=O)(=O)c3cccc(Cl)c3)nnn2c2ccsc12")
7.22
>>> recorded_number("CC(Nc1nc2c(S(=O)(=O)c3ccccc3)nnn2c2ccsc12)c1ccccc1 (stereo not given)")
7.43
>>> recorded_number("Cc1ccc(S(=O)(=O)c2nnn3c2nc(NCc2cccc(Cl)c2)c2sccc23)cc1")
6.92
>>> recorded_number("CC(C)Nc1nc2c(S(=O)(=O)c3cccc(Cl)c3)nnn2c2ccsc12")
6.33
>>> recorded_number("CN(C)CCN(C)c1nc2c(S(=O)(=O)c3cccc(Cl)c3)nnn2c2ccsc12")
6.24
>>> recorded_number("Cc1ccc(S(=O)(=O)c2nnn3c2nc(NCc2cccs2)c2sccc23)cc1C")
7.05
>>> recorded_number("COc1cccc(CNc2nc3c(S(=O)(=O)c4ccccc4)nnn3c3ccsc23)c1")
5.86
>>> recorded_number("Cc1ccc(S(=O)(=O)c2nnn3c2nc(NC(C)c2ccccc2)c2sccc23)cc1 (stereo not given)")
6.74
>>> recorded_number("CCc1ccc(S(=O)(=O)c2nnn3c2nc(NC(C)C)c2sccc23)cc1")
5.80
>>> recorded_number("COc1ccccc1CNc1nc2c(S(=O)(=O)c3ccc(C)cc3)nnn2c2ccsc12")
6.24
>>> recorded_number("O=S(=O)(c1cccc(Cl)c1)c1nnn2c1nc(N1CCOCC1)c1sccc12")
5.98
>>> recorded_number("O=S(=O)(c1cccc(Cl)c1)c1nnn2c1nc(NCc1ccco1)c1sccc12")
6.72

###

- TARGET_OF_ASSAY: hERG (KCNH2) (Homo sapiens)
- Sequence (Q12809 whole entry): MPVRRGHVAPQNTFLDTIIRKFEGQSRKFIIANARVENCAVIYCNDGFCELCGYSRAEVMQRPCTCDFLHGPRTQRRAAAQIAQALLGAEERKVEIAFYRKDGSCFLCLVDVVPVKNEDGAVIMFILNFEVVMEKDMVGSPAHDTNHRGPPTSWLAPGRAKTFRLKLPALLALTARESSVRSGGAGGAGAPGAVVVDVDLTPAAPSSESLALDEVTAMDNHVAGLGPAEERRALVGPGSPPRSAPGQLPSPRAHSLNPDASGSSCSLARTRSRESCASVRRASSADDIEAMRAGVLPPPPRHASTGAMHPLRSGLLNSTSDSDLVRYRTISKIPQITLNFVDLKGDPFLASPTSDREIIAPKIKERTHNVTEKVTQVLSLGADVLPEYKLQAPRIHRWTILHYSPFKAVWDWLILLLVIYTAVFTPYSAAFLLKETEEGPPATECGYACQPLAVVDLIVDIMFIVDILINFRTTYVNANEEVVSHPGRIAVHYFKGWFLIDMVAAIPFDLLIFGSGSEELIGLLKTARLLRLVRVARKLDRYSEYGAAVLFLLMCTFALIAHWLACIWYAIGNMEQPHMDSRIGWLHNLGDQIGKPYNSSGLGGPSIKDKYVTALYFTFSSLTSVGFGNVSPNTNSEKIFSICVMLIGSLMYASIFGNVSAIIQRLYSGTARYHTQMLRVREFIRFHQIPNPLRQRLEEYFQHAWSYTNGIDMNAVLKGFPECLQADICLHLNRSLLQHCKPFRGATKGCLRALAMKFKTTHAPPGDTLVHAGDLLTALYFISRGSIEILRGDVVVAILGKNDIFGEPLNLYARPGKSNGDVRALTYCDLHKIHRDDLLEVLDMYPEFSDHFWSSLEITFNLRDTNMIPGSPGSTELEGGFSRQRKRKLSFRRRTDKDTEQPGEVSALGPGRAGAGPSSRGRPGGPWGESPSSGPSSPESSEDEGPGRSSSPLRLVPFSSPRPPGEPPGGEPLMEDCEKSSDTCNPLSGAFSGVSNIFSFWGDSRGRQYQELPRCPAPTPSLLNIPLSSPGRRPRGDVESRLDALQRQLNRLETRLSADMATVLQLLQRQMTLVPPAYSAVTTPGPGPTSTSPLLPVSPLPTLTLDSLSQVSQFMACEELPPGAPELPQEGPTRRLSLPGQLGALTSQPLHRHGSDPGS
- ASSAY_PROTOCOL: Inhibition of human ERG at 30 uM by patch clamp assay
EXPERIMENTAL_READOUT: inhibition at 30 µM (%)

>>> recorded_number("CN(Cc1ccccc1)c1nc2c(S(=O)(=O)c3cccc(Cl)c3)nnn2c2ccsc12")
20

###

- TARGET_OF_ASSAY: UniProtKB P50406
- ASSAY_PROTOCOL: Antagonist activity at human recombinant 5HT6 receptor expressed in HEK293 cells assessed as inhibition of serotonin-induced cAMP production
- Type: functional, cell-based
pIC50: −log10 of the molar value.
EXPERIMENTAL_READOUT: pIC50

>>> recorded_number("Cc1ccc(S(=O)(=O)c2nnn3c2nc(NCC2CCCO2)c2sccc23)cc1 (stereo unspecified)")
6.60
>>> recorded_number("CC(Nc1nc2c(S(=O)(=O)c3cccc(Cl)c3)nnn2c2ccsc12)c1ccccc1 (stereo unspecified)")
6.82
>>> recorded_number("COCCNc1nc2c(S(=O)(=O)c3ccccc3)nnn2c2ccsc12")
6.72
>>> recorded_number("CC1CCN(c2nc3c(S(=O)(=O)c4cccc(Cl)c4)nnn3c3ccsc23)CC1")
5.95
>>> recorded_number("O=S(=O)(c1ccccc1)c1nnn2c1nc(NCc1cccs1)c1sccc12")
6.96
>>> recorded_number("Cc1ccc(S(=O)(=O)c2nnn3c2nc(NCc2ccc(F)cc2)c2sccc23)cc1")
6.13

###

- TARGET_OF_ASSAY: 5-hydroxytryptamine receptor 6 (Homo sapiens)
- ASSAY_PROTOCOL: Antagonist activity at human recombinant 5HT6 receptor expressed in HEK293 cells assessed as inhibition of serotonin-induced cAMP production
- Assay type: functional, cell-based
pIC50: −log10 of the molar value.
Everything with pIC50 lower than 6 is not met; everything else, including exactly 6, is met.

>>> classification("Cc1ccc(S(=O)(=O)c2nnn3c2nc(NCc2ccco2)c2sccc23)cc1")
"met"
>>> classification("O=S(=O)(c1cccc(Cl)c1)c1nnn2c1nc(N1CCCCCC1)c1sccc12")
"not met"
>>> classification("O=S(=O)(c1ccccc1)c1nnn2c1nc(NCc1ccccc1Cl)c1sccc12")
"met"

###

- TARGET_OF_ASSAY: UniProt:P50406
- ASSAY_PROTOCOL: Antagonist activity at human recombinant 5HT6 receptor expressed in HEK293 cells assessed as inhibition of serotonin-induced cAMP production
- Type: functional, cell-based
EXPERIMENTAL_READOUT: log10(IC50) (log10 of the value in nM)

>>> recorded_number("Cc1ccc(S(=O)(=O)c2nnn3c2nc(NCc2ccccc2)c2sccc23)cc1")
2.41
>>> recorded_number("COCCNc1nc2c(S(=O)(=O)c3ccc(Cl)cc3)nnn2c2ccsc12")
3.34
>>> recorded_number("Cc1ccc(S(=O)(=O)c2nnn3c2nc(NCCC(C)C)c2sccc23)cc1")
2.76
>>> recorded_number("Cc1ccc(C)c(S(=O)(=O)c2nnn3c2nc(NCCCc2ccccc2)c2sccc23)c1")
3.09
>>> recorded_number("Cc1ccc(C)c(S(=O)(=O)c2nnn3c2nc(NCCC(C)C)c2sccc23)c1")
2.93
>>> recorded_number("COCCNc1nc2c(S(=O)(=O)c3cccc(Cl)c3)nnn2c2ccsc12")
2.04
>>> recorded_number("Cc1ccc(C)c(S(=O)(=O)c2nnn3c2nc(NCC2CCCO2)c2sccc23)c1 (stereo unspecified)")
2.95
>>> recorded_number("Cc1ccc(S(=O)(=O)c2nnn3c2nc(Nc2ccc(Cl)cc2)c2sccc23)cc1C")
3.16
>>> recorded_number("COCCNc1nc2c(S(=O)(=O)c3ccc(C)c(C)c3)nnn2c2ccsc12")
3.20
>>> recorded_number("Cc1cccc(Nc2nc3c(S(=O)(=O)c4ccc(C(C)C)cc4)nnn3c3ccsc23)c1")
2.77
>>> recorded_number("Cc1ccc(C)c(S(=O)(=O)c2nnn3c2nc(NC(C)c2ccccc2)c2sccc23)c1 (stereo unspecified)")
2.23
>>> recorded_number("O=S(=O)(c1ccccc1)c1nnn2c1nc(Nc1ccc(F)cc1)c1sccc12")
2.78
>>> recorded_number("COc1cccc(Nc2nc3c(S(=O)(=O)c4ccc(C(C)C)cc4)nnn3c3ccsc23)c1")
2.95
>>> recorded_number("O=S(=O)(c1ccccc1)c1nnn2c1nc(NCc1cccnc1)c1sccc12")
2.41
>>> recorded_number("O=S(=O)(c1ccccc1)c1nnn2c1nc(NCc1ccco1)c1sccc12")
1.60
>>> recorded_number("CC(C)Nc1nc2c(S(=O)(=O)c3ccccc3)nnn2c2ccsc12")
2.57
>>> recorded_number("Cc1ccc(S(=O)(=O)c2nnn3c2nc(NCCC(C)C)c2sccc23)cc1C")
1.66
>>> recorded_number("O=S(=O)(c1cccc(Cl)c1)c1nnn2c1nc(NCc1cccs1)c1sccc12")
2.18
>>> recorded_number("CN(Cc1ccccc1)c1nc2c(S(=O)(=O)c3ccccc3)nnn2c2ccsc12")
2.23

###

- TARGET_OF_ASSAY: 5-hydroxytryptamine receptor 6 (Homo sapiens, UniProt P50406)
- ASSAY_PROTOCOL: Antagonist activity at human recombinant 5HT6 receptor expressed in HEK293 cells assessed as inhibition of serotonin-induced cAMP production
- Format: functional, cell-based
pIC50: −log10 of the molar value.
A collection of molecules and their measured pIC50
EXPERIMENTAL_READOUT: pIC50

>>> recorded_number("COc1ccccc1CNc1nc2c(S(=O)(=O)c3ccc(Br)cc3)nnn2c2ccsc12")
6.03
>>> recorded_number("CN(C)CCN(C)c1nc2c(S(=O)(=O)c3cccc(Cl)c3)nnn2c2ccsc12")
6.11
>>> recorded_number("Cc1ccc(S(=O)(=O)c2nnn3c2nc(NCc2ccccc2Cl)c2sccc23)cc1C")
6.22
>>> recorded_number("O=S(=O)(c1ccccc1)c1nnn2c1nc(NCc1ccc(F)cc1)c1sccc12")
6.16
>>> recorded_number("CC(Nc1nc2c(S(=O)(=O)c3ccc(Br)cc3)nnn2c2ccsc12)c1ccccc1 (stereo not given)")
6.27
>>> recorded_number("Cc1ccc(C)c(S(=O)(=O)c2nnn3c2nc(N2CCCCC2)c2sccc23)c1")
5.82
>>> recorded_number("CC(Nc1nc2c(S(=O)(=O)c3ccc(Cl)cc3)nnn2c2ccsc12)c1ccccc1 (stereo not given)")
6.55
>>> recorded_number("O=S(=O)(c1cccc(Cl)c1)c1nnn2c1nc(NC1CCCCCC1)c1sccc12")
6.85
>>> recorded_number("Cc1ccc(S(=O)(=O)c2nnn3c2nc(N(C)Cc2ccccc2)c2sccc23)cc1C")
5.88
>>> recorded_number("CCCCNc1nc2c(S(=O)(=O)c3ccccc3)nnn2c2ccsc12")
7.16
>>> recorded_number("Cc1ccc(C)c(S(=O)(=O)c2nnn3c2nc(NCc2cccs2)c2sccc23)c1")
6.15
>>> recorded_number("O=S(=O)(c1ccccc1)c1nnn2c1nc(NCCc1ccccc1)c1sccc12")
5.94
>>> recorded_number("O=S(=O)(c1ccccc1)c1nnn2c1nc(NCc1ccc(Cl)cc1)c1sccc12")
5.93
>>> recorded_number("CCN(Cc1ccccc1)c1nc2c(S(=O)(=O)c3ccc(Cl)cc3)nnn2c2ccsc12")
6.24
>>> recorded_number("CCc1cccc(Nc2nc3c(S(=O)(=O)c4ccc(C)cc4)nnn3c3ccsc23)c1")
5.86
>>> recorded_number("Cc1ccc(S(=O)(=O)c2nnn3c2nc(NC2CCCCC2)c2sccc23)cc1C")
6.09
>>> recorded_number("O=S(=O)(c1ccccc1)c1nnn2c1nc(Nc1ccccc1)c1sccc12")
5.30
>>> recorded_number("Cc1ccc(S(=O)(=O)c2nnn3c2nc(Nc2cccc(C)c2)c2sccc23)cc1")
5.28

These data points were gathered from ChEMBL document CHEMBL1177669.
